Values compiled from paper PMC5540273.

System: MYO3A
measurement.setup: concentration: 1 μM, replicates: in singlicate; n = 1;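 also: KINOMEscan kinase panel screen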
The following ranges of %Inh define the classes used here: group 1 = under 10%, group 2 = from 10% up to 30%, group 3 = 30% and over

# molecule, system, discrete.label
data = [
    ("CN(c1ccc(NC(=O)Nc2cc(C(F)(F)F)ccc2F)cc1)c1ccnc(Nc2ccc(S(N)(=O)=O)cc2)n1 [GW809893]", "MYO3A", "group 3"),
    ("CN(C)Cc1ccc(-c2ccc3c(Nc4ccc(Oc5ccccn5)cc4)ccnc3c2)o1 [GW567148]", "MYO3A", "group 1"),
    ("Cn1cc(-c2ccc3c(c2)CCN3C(=O)Cc2cccc(Cl)c2)c2c(N)ncnc21 [GSK2606590]", "MYO3A", "group 3"),
    ("CC(C)(C)c1ccc2nccc(Nc3cccc(O)c3)c2c1 [GW856795]", "MYO3A", "group 1"),
    ("CNC(=O)c1ccccc1Nc1nc(Nc2ccc(N3CCOCC3)cc2)ncc1Cl.Cl [GSK1576028]", "MYO3A", "group 3"),
    ("Cc1ccc(C)c(NC(=O)NC2CCN(c3ccnc(Nc4ccc(F)cc4)n3)C2)c1 (centres unmarked) [GSK1379720]", "MYO3A", "group 1"),
    ("COc1cc2c(cc1OCCN1CCNCC1)ncc1c3ccc(C#N)cc3[nH]c21", "MYO3A", "group 1"),
    ("Cc1ccc(C(=O)N2CC[C@@H](O)C2)cc1-n1c(C)cc(OCc2ccc(F)cc2F)c(Br)c1=O", "MYO3A", "group 1"),
    ("C[C@@H]1CC[C@@H](C(=O)Nc2ccccc2)CN1c1cc(-c2ccc3c(N)n[nH]c3c2)nc(N)n1 [GSK2286062]", "MYO3A", "group 3"),
    ("Cc1ccc(S(=O)(=O)Nc2ccc(Nc3nccc(Nc4cccc5[nH]ncc45)n3)cc2)cc1 [GSK581271]", "MYO3A", "group 1"),
    ("CCc1ccc(-c2ccc3c(c2)-c2c(cnn2C)S(=O)(=O)N3C)cc1", "MYO3A", "group 2"),
    ("COc1cc(Nc2nccc(N3CCC(NC(=O)Nc4cccc(C(C)=O)c4)C3)n2)cc(OC)c1OC (centres unmarked) [GSK1379753]", "MYO3A", "group 1"),
    ("Cn1cc(-c2ccc3c(c2)CCN3C(=O)Cc2cccc(F)c2)c2c(N)ncnc21 [GSK2603358]", "MYO3A", "group 3"),
    ("COc1cc(Nc2nccc(N3CCC(NC(=O)c4cc5ccccc5s4)C3)n2)cc(OC)c1OC (centres unmarked) [GSK1379760]", "MYO3A", "group 2"),
    ("Cc1ccc(C(=O)Nc2ccc(Nc3ccnc4cc(-c5nccs5)ccc34)cc2O)cc1.Cl [GW494702]", "MYO3A", "group 3"),
    ("COC(=O)Nc1nc2ccc(Oc3ccc(NC(=O)Nc4cc(C(F)(F)F)ccc4F)cc3)cc2n1C.Cl [GW692089]", "MYO3A", "group 2"),
    ("COc1cccc(NC(=O)NC2CCN(c3ccnc(Nc4cc(OC)c(OC)c(OC)c4)n3)C2)c1 (centres unmarked) [GSK1379763]", "MYO3A", "group 2"),
    ("CC(C)c1nc(-c2cccc(NS(=O)(=O)c3c(F)cccc3F)c2F)c(-c2ccnc(Nc3ccc(N4CCOCC4)nc3)n2)s1 [GSK2008607]", "MYO3A", "group 3"),
    ("c1ccc(Oc2ccc(Nc3ccnc4cc(-c5ccc(CNCCN6CCOCC6)o5)ccc34)cc2)nc1 [GW567145]", "MYO3A", "group 2"),
    ("COc1cc(Nc2nccc(-c3c(-c4cccc(NC(=O)c5c(F)cccc5F)c4)nn4ncccc34)n2)cc(OC)c1OC [GSK327238]", "MYO3A", "group 3"),
    ("O=C(O)C(F)(F)F.O=C(O)C(F)(F)F.O=c1[nH]ccc2nc(N[C@@H]3CCCNC3)nc(Nc3ccc(S(=O)(=O)N4CCOCC4)cc3)c12 [GSK2177277]", "MYO3A", "group 3"),
    ("Clc1ccc(-c2nn3ncccc3c2-c2ccnc(Nc3ccc4c(c3)OCCO4)n2)cc1 [GW829116]", "MYO3A", "group 1"),
    ("NCCCC(NC(=O)c1cc(Br)c(-c2ccnc3[nH]ccc23)s1)c1ccccc1.O=C(O)C(F)(F)F.O=C(O)C(F)(F)F (centres unmarked) [GSK1287544]", "MYO3A", "group 1"),
    ("COc1cccc(C(=O)Nc2cccc(Oc3ccc4nc(NC(=O)C5CC5)cn4n3)c2)c1", "MYO3A", "group 2"),
    ("CC(=O)N1CCN(c2ccc(Nc3nccc(-c4sc(C(C)C)nc4-c4cccc(NS(=O)(=O)c5cccc(Cl)c5)c4)n3)cn2)CC1 [GSK1660437]", "MYO3A", "group 2"),
    ("Cl.Cl.NCC(NCc1ccc(-c2ccnc3[nH]ccc23)s1)c1ccccc1 (centres unmarked) [GSK1321565]", "MYO3A", "group 3"),
    ("CSc1cccc2c(-c3ccncn3)c(-c3ccc(F)cc3)nn12 [GW514786]", "MYO3A", "group 2"),
    ("Nc1ncc(-c2cccnc2)c2scc(-c3ccc4c(c3)CCN4C(=O)Cc3ccccc3)c12 [GSK683281]", "MYO3A", "group 2"),
]

###

System: LATS1
measurement.setup: concentration: 1 μM, replicates: in singlicate; n = 1

# smiles.str, %Inh (%)
data = [
    ("Nc1ncc(-c2ccc3nccc(-c4ccncc4)c3c2)cc1S(=O)(=O)N1CCOCC1", 0),
    ("COc1cc2c(cc1OCCN1CCNCC1)ncc1c3ccc(C#N)cc3[nH]c21", 0),
    ("Nc1n[nH]c2cnc(-c3ccccc3)cc12", 0),
    ("c1ccc(-c2cnc3nccnn23)cc1", 0),
    ("O=C(Nc1ccccc1F)NC1CCN(c2ccnc(Nc3ccc(F)cc3)n2)CC1", 0),
    ("COc1cccc(C(=O)Nc2cccc(Oc3ccc4nc(NC(=O)C5CC5)cn4n3)c2)c1", 0),
    ("Cc1occc1-c1ncc(OC[C@@H](N)Cc2c[nH]c3ccccc23)cc1-c1ccc2[nH]nc(C)c2c1.O=C(O)C(F)(F)F", 93.9),
    ("Cl.NC(=O)c1cccc(Nc2nccc(Nc3ccc(Oc4c(Cl)cccc4Cl)c(Cl)c3)n2)c1", 0),
    ("COc1cccc(-c2ccc3c(NC(=O)C4CC4)n[nH]c3n2)c1", 9),
]

###

Test system: NIM1
Construct: gene MGC42105
measurement.setup: concentration: 1 μM, replicates: in singlicate; n = 1
Threshold check on %Inh: strictly below 20% is MET; on or above 20% is NOT MET.

# molecule, discrete.label
data = [
    ("COc1ccc(-c2coc3ccc(-c4nnc(SCc5ccc(OC)c(C(F)(F)F)c5)o4)cc23)cc1", "MET"),
    ("COCCOCCOc1cc2ncc3c4ccc(C#N)cc4[nH]c3c2cc1OC", "NOT MET"),
    ("NCCCC(NC(=O)c1cc(Br)c(-c2ccnc3[nH]ccc23)s1)c1ccccc1.O=C(O)C(F)(F)F.O=C(O)C(F)(F)F (stereo not shown) [GSK1287544]", "MET"),
    ("COc1cc(Nc2nccc(N3CCC(NC(=O)c4cc5ccccc5s4)C3)n2)cc(OC)c1OC (stereo not shown) [GSK1379760]", "MET"),
    ("O=C(O)C(F)(F)F.O=C(O)C(F)(F)F.O=c1[nH]ccc2nc(N[C@@H]3CCCNC3)nc(Nc3ccc(S(=O)(=O)N4CCOCC4)cc3)c12 [GSK2177277]", "NOT MET"),
    ("CCS(=O)(=O)c1ccc(OC)c(Nc2nccc(-c3c(-c4cccc(NC(=O)c5c(F)cccc5F)c4)nn4ncccc34)n2)c1 [GSK326180]", "MET"),
    ("O=C(Nc1n[nH]c2cc(-c3ccoc3)ccc12)C1CC1 [SB-738481]", "NOT MET"),
    ("Cl.c1ccc(-c2ccc3c(Nc4ccc5[nH]ccc5c4)ccnc3c2)nc1 [GW440138]", "NOT MET"),
    ("COC(=O)Nc1nc2cc(Oc3ccc(NC(=O)Nc4cc(C(F)(F)F)ccc4F)cn3)ccc2[nH]1.Cl.Cl [GW681170]", "NOT MET"),
    ("CCn1c(-c2nonc2N)nc2c(C#CC(C)(C)O)nc(OC[C@H](N)c3ccccc3)cc21 [GSK943949]", "MET"),
    ("COC(=O)Nc1nc2ccc(Oc3ccc(NC(=O)Nc4cc(C(F)(F)F)ccc4F)cc3)cc2n1C.Cl [GW692089]", "NOT MET"),
    ("O=C(Nc1cccc(-c2nn3ccccc3c2-c2ccnc(Nc3cccc(C(F)(F)F)c3)n2)c1)c1c(F)cccc1F [GSK292658]", "MET"),
    ("CN1CCN(Cc2cccc(-c3ccc4c(Nc5ccc(Oc6ccccc6)cc5)ccnc4c3)c2)CC1 [GW578342]", "NOT MET"),
    ("COc1ccc(CNC(=O)NC2CCN(c3ccnc(Nc4ccc(F)cc4)n3)CC2)cc1 [GSK1379788]", "MET"),
    ("Cc1ccc(S(=O)(=O)Nc2ccc(Nc3nccc(Nc4cccc5[nH]ncc45)n3)cc2)cc1 [GSK581271]", "NOT MET"),
    ("Cc1cccc(Nc2nc(N[C@H]3CCNC3)ncc2C(N)=O)c1.Cl [GSK2197149]", "MET"),
]
